Where these numbers come from: the supplement of paper PMC6555819

Tested on: RARg:RXRa (NR concentration 270 nM, RXRa partner concentration 90 nM)
Test: PBM binding z-score (relative to random genomic background probes); higher = stronger binding; sequences stand for … in GC…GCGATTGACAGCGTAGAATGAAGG
Lab note: anything with PBM binding z-score at or over 0.9 counts as label 1; the rest go in label 0.

{"CHAIN SEQUENCE": "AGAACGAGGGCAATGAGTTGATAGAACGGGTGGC", "SYSTEM UNDER TEST": "RARg:RXRa (NR concentration 270 nM, RXRa partner concentration 90 nM)", "CLASSIFICATION": "label 1"}
{"CHAIN SEQUENCE": "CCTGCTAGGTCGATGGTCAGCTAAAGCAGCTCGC", "SYSTEM UNDER TEST": "RARg:RXRa (NR concentration 270 nM, RXRa partner concentration 90 nM)", "CLASSIFICATION": "label 0"}
{"CHAIN SEQUENCE": "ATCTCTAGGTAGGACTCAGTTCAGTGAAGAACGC", "SYSTEM UNDER TEST": "RARg:RXRa (NR concentration 270 nM, RXRa partner concentration 90 nM)", "CLASSIFICATION": "label 0"}

query: PBM binding z-score >= 0.9 for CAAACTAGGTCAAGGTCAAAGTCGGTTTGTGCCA ?
result: label 1

query: Tell me whether PBM binding z-score is at least 0.9 here: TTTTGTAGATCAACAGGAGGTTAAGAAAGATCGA
result: label 1

query: Answer whether PBM binding z-score of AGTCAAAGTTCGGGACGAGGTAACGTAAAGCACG is greater than or equal to 0.9.
result: label 1

query: Please tell me: is the sequence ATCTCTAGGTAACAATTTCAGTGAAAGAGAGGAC at or over 0.9 in terms of PBM binding z-score?
result: label 0

query: # bool: PBM binding z-score of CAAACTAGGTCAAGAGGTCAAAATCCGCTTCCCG >= 0.9
result: label 1

query: Does PBM binding z-score meet or surpass 0.9 for ACTAGTTGGTCAGCTGAAGTCACACACAATTCGG ?
result: label 0

query: Is PBM binding z-score for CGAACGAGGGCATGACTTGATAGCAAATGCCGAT at or above 0.9?
result: label 1

query: Is the recorded value of PBM binding z-score equal to or greater than 0.9 for this sequence? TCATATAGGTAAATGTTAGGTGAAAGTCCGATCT
result: label 0

query: API: above_or_equal(metric=PBM binding z-score, cutoff=0.9) for item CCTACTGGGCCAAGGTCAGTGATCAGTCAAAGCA
result: label 1

query: Threshold query (PBM binding z-score >= 0.9) on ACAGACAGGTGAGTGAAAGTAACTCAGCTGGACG
result: label 0

query: Is the recorded value of PBM binding z-score equal to or greater than 0.9 for this sequence? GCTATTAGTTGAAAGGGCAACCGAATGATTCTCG
result: label 1

query: In plain terms: is recorded PBM binding z-score at least 0.9 for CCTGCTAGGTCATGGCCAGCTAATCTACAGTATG ?
result: label 1

query: Does PBM binding z-score meet or surpass 0.9 for TCGAGTAGGTTAGTCCGGGCATTCAGCCAACATA ?
result: label 0

query: Please check the record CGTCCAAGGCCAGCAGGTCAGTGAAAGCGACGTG and state if its PBM binding z-score is at or above 0.9.
result: label 1

query: Is PBM binding z-score at least 0.9? Consider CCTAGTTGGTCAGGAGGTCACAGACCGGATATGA
result: label 1

query: PBM binding z-score >= 0.9 for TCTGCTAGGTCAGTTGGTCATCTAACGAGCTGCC ?
result: label 1

query: Evaluate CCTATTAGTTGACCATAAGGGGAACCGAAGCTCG : PBM binding z-score at minimum 0.9?
result: label 0

query: State whether the measured PBM binding z-score reaches 0.9, counting equality as reaching it, for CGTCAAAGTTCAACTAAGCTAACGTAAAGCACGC
result: label 1
